// data source = ChEMBL document CHEMBL1933063

system: Broad substrate specificity ATP-binding cassette transporter ABCG2 (Homo sapiens, UniProt Q9UNQ0)
Sequence (Q9UNQ0 whole entry): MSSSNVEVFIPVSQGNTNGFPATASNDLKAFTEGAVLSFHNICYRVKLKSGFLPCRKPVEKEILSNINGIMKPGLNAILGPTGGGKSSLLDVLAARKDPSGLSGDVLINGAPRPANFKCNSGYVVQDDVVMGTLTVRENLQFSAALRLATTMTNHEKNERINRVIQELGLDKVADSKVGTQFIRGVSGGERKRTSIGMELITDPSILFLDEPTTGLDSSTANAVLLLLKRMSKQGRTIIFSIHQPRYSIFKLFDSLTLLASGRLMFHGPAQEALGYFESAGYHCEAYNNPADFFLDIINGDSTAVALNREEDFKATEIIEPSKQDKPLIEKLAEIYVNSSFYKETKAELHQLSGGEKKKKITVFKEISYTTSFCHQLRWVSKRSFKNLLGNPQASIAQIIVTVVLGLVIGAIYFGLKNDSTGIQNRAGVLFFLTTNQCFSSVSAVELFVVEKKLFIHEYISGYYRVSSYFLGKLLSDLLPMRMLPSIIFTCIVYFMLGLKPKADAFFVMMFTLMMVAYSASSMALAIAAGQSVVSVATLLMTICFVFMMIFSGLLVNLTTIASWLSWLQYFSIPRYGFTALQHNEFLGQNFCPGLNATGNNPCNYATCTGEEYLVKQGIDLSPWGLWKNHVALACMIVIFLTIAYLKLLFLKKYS
experiment_summary: Inhibition of BCRP in human MCF7/MX cells assessed as Hoechst 33342 accumulation preincubated for 30 mins by Fluorometry
Assay type: cell-based
test_conditions: read-out: IC50
pIC50: −log10 of the molar value.
measurement_name: pIC50

# smiles, pIC50
rows = [
    ("COc1ccc(/C=C/C(=O)c2c(O)ccc3ccccc23)cc1", 5.42),
    ("COc1ccc(C(=O)/C=C/c2ccccc2Cl)c(O)c1", 5.16),
    ("COc1ccc(C(=O)/C=C/c2ccccc2Cl)cc1OC", 4.96),
    ("COc1ccc(/C=C/C(=O)c2ccc3ccccc3c2O)cc1OC", 5.60),
    ("COc1ccc(/C=C/C(=O)c2ccccc2O)cc1OC", 5.29),
]

A. COc1cccc(/C=C/C(=O)c2ccc3ccccc3c2O)c1
B. COc1ccc(C(=O)/C=C/c2ccc(Cl)cc2)cc1OC
C. COc1ccc(/C=C/C(=O)c2c(O)cc(OC)cc2OC)cc1
IN: Order the entries by their reported pIC50, beginning at the minimum. # respond with the labels, arranged in the requested order
OUT: A, C, B
